The reader will find IC50 measurements below, all made with TEAD1 protein (YAP Binding Domain) (Homo sapiens).
Sequence (P28347 209-426 limits assumed): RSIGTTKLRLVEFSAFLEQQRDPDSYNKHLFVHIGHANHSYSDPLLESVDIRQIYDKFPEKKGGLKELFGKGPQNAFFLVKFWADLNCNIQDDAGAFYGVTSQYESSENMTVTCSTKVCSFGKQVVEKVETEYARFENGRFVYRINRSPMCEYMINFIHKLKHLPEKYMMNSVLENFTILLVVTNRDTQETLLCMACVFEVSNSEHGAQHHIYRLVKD
parameter_measured: IC50

1. C=CC(=O)Nc1ccc(N(Cc2ccncc2)Cc2cccc(F)c2)c(F)c1; > 2000 nM
2. C=CC(=O)Nc1ccc(OCc2ccc(C(=O)OC)nc2)c(F)c1; > 2000 nM
3. C=CC(=O)Nc1ccc(C2CCc3ccccc3C2)c(F)c1 (centres unmarked); 500 to 2000 nM
4. C=CC(=O)Nc1ccc(OCc2cccc(F)c2Cl)c(F)c1; ≤ 250 nM
5. C=CC(=O)Nc1ccc(OCc2csc3ccccc23)c(F)c1; 500 to 2000 nM
6. C=CC(=O)Nc1cc2nc(CCc3cccc(F)c3)oc2cc1F; 250 to 500 nM
7. C=CC(=O)Nc1cc2nc(CC3CC3C)oc2cc1F (centres unmarked); 250 to 500 nM
8. C=CC(=O)Nc1ccc(OC(C)c2ccccc2Cl)c(F)c1 (centres unmarked); 500 to 2000 nM
